- Tested target: furin, P09958;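 also: purified furin at 1:10 enzyme:substrate in 50 mM HEPES pH 7.5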
- Sequence (P09958 whole entry): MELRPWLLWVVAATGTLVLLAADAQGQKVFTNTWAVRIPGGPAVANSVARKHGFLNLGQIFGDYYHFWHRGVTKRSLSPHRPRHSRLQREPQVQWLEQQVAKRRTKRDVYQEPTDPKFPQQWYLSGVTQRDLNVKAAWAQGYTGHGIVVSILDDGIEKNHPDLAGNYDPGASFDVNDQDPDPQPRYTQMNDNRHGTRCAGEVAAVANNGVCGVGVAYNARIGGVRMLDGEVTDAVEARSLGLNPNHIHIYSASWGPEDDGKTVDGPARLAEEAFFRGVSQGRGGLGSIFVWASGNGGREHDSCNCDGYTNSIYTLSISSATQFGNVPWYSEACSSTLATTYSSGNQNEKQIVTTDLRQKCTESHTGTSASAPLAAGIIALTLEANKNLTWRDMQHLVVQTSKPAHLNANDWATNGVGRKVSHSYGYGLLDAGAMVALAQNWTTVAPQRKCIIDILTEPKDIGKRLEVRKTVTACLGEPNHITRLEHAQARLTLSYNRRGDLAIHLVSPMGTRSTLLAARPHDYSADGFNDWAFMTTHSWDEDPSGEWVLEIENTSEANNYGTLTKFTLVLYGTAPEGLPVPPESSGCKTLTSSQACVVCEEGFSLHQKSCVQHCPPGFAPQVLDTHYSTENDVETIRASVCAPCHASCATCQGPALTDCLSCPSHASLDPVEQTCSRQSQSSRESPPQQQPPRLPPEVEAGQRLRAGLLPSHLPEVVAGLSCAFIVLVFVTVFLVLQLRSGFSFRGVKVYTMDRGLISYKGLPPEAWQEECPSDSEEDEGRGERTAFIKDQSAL
- Test protocol: furin cleavage Z-score vs untreated control; higher = more cleavage, active = 3.5 or more, inactive = 1 or less, 8 variable residues between constant flanks
- Details: 7.5 min
The other results are listed elsewhere or left out. The true hit rate is not given.
Respond only with the outcome that fits, drawn from 1 (yes) for active, 0 (no) for inactive

For orientation, consider the following solved cases.
{"Primary sequence": "CARCRRGFGVAGNASASA [FS-1849]", "Class assignment": "0 (no)"}
{"Primary sequence": "CAEVVTSTGVAGNASASA [HC2236]", "Class assignment": "0 (no)"}
{"Primary sequence": "CARCKRGTGVAGNASASA [FS-2898]", "Class assignment": "1 (yes)"}

[in] Could you please tell me the result logged for CARKKRSTGVAGNASASA [FS-2694] in this assay?
[out] 1 (yes)
